Listing: growth inhibition of selected compounds
# Protocol Notes: NCI Yeast Anticancer Drug Screen. Data for the cln2 rad14 strain (AID 165);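 further: 0% = growth equal to vehicle treated cultures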
# Run Conditions: S. cerevisiae cln2 rad14 strain, at 50.0 µM, active compounds read high
This is part of a sample that, as a whole, favours compounds with a hit. Of some 79,000 tested, about 15% had one in any assay.
Measured Endpoint: growth inhibition (%)

> print(dat)
                                    compound  measured.endpoint  recorded.result
 1                  O=C(N/N=C/c1ccccc1)C1CC1  growth inhibition                8
 2        COC(=O)c1cc2cc3ccccc3cc2cc1C(=O)OC  growth inhibition            -13.4
 3  Cc1cc(N(CCC#N)CCC#N)ccc1/C=C(\NC(=O)/C=C/c1ccccc1)C(N)=O  growth inhibition            -10.6
 4          Cc1nc(N)nc(C)c1N=Nc1ccc(Cl)cc1Cl  growth inhibition             -7.3
 5                  c1ccc2c(c1)NC1(CCCCC1)S2  growth inhibition             11.6
 6  COc1ccc(C2=Nn3c(nc4sc(-c5ccccc5)cc4c3=O)SC2)cc1  growth inhibition             3.55
 7  C1CCC(C2CCCC[N-]2)[N-]C1.C1CCC(C2CCCC[N-]2)[N-]C1.O=C(O)C(=O)O.[Ru+4] (stereo unspecified)  growth inhibition             11.8
 8  O=C(Nc1ccccc1-c1n[nH]c(=S)[nH]c1=O)C(F)(F)F  growth inhibition            -7.35
 9  COC(=O)C1(Cc2ccccc2)Cc2cc3c(cc2C1=O)CCC3 (stereo unspecified)  growth inhibition              2.2
10         CCCN(CCC)NC(=O)c1ccc(N=NN(C)C)cc1  growth inhibition             -5.3
11  COC(=O)N/N=C(\C)C(CN1CCCCC1)C(C1=C(O)c2ccccc2OC1)c1ccccc1 (stereo unspecified)  growth inhibition             17.1

----------
# growth inhibition annotations
# Protocol Notes: NCI Yeast Anticancer Drug Screen. Data for the mec2-1 strain (AID 157)
# Run Conditions: S. cerevisiae mec2-1 strain, at 50.0 µM, active compounds read high
About 79,000 compounds went through this panel and 15% of them were active in at least one assay; those are over-represented in the sample as a whole. The source made the active and inactive calls. Cut-off read from the data, not from the text of the source: active = growth inhibition above about 70%; inactive = the rest.
Measured Endpoint: growth inhibition

> print(dat)
                                    molecule    recorded.result
 1  CC(C)NCC(O)c1ccc(O)c2ncccc12 (configuration not stated)   24.3% (inactive)
 2                 CC(=O)CC(=O)Nc1cccc(C)c1C  -15.2% (inactive)
 3  COc1cccc(OC)c1OC(=O)/C=C\C(=O)Oc1c(OC)cccc1OC  -8.65% (inactive)
 4  COc1cc(C2C(Cl)C(=O)N2n2cnc3ccccc3c2=O)ccc1O (configuration not stated)    3.3% (inactive)
 5              CCOC(=O)/C=C(\C)c1ccc(Cl)cc1  -18.6% (inactive)
 6                  CCn1ncc2ccc(N(CO)CO)cc21   22.1% (inactive)
 7         CCOC(=O)CN=C1NNS(=O)(=O)c2ccccc21  -17.4% (inactive)
 8  CCOc1ccc(NC(=O)C(=O)C(C(=O)c2ccc3ccccc3c2)C2OC(=O)c3ccccc32)cc1 (configuration not stated)   3.45% (inactive)
 9  c1ccc(C2SCc3nc4cc5ccccc5cc4n32)cc1 (configuration not stated)    6.4% (inactive)
10  Cc1ccc2nc(-c3ccc(CSC(=N)N)cc3)oc(=O)c2c1   43.5% (inactive)
11                        FC12CCC(F)(CC1)CC2   20.1% (inactive)
12  CC/C=C/C(C)c1cc(C(=O)O)ccc1OC (configuration not stated)    4.3% (inactive)
